Measured Bind A*30:01, listed per entry for reference.
# SYSTEM NAME: HLA-A*30:01 (Homo sapiens, UniProt P04439, D140H/D185E/E176W/F33S/G80R/H175R/K168Q/R138E/R41S)
# Assay type: binding
# EXPERIMENTAL CONTEXT: percent relative the binding of positive control peptide KTKDIVNGL; duplicated experiments; positive binder >40%
VALUE KIND: Bind A*30:01 (%)

>  <RESIDUE SEQUENCE>
ATATELNNA [Rv3875_60–68]

>  <VALUE KIND>
Bind A*30:01

>  <TEST VALUE>
0

$$$$
>  <RESIDUE SEQUENCE>
SLTKLAAAW [Rv3875_35–43]

>  <VALUE KIND>
Bind A*30:01

>  <TEST VALUE>
6

$$$$
>  <RESIDUE SEQUENCE>
QQWNFAGIE [Rv3875_4–12]

>  <VALUE KIND>
Bind A*30:01

>  <TEST VALUE>
0

$$$$
>  <RESIDUE SEQUENCE>
AMASTEGNV [Rv3875_82–90]

>  <VALUE KIND>
Bind A*30:01

>  <TEST VALUE>
0

$$$$
>  <RESIDUE SEQUENCE>
AWGGSGSEA [Rv3875_42–50]

>  <VALUE KIND>
Bind A*30:01

>  <TEST VALUE>
16

$$$$
>  <RESIDUE SEQUENCE>
NLARTISEA [Rv3875_71–79]

>  <VALUE KIND>
Bind A*30:01

>  <TEST VALUE>
15

$$$$
>  <RESIDUE SEQUENCE>
EAAASAIQG [Rv3875_12–20]

>  <VALUE KIND>
Bind A*30:01

>  <TEST VALUE>
0

$$$$
>  <RESIDUE SEQUENCE>
AAAWGGSGS [Rv3875_40-48]

>  <VALUE KIND>
Bind A*30:01

>  <TEST VALUE>
29

$$$$
>  <RESIDUE SEQUENCE>
WGGSGSEAY [Rv3875_43–51]

>  <VALUE KIND>
Bind A*30:01

>  <TEST VALUE>
18

$$$$
>  <RESIDUE SEQUENCE>
TATELNNAL [Rv3875_61–69]

>  <VALUE KIND>
Bind A*30:01

>  <TEST VALUE>
4

$$$$
>  <RESIDUE SEQUENCE>
ATELNNALQ [Rv3875_62–70]

>  <VALUE KIND>
Bind A*30:01

>  <TEST VALUE>
16

$$$$
>  <RESIDUE SEQUENCE>
AGQAMASTE [Rv3875_79–87]

>  <VALUE KIND>
Bind A*30:01

>  <TEST VALUE>
20

$$$$
>  <RESIDUE SEQUENCE>
ALQNLARTI [Rv3875_68–76]

>  <VALUE KIND>
Bind A*30:01

>  <TEST VALUE>
0

$$$$
>  <RESIDUE SEQUENCE>
LAAAWGGSG [Rv3875_39-47]

>  <VALUE KIND>
Bind A*30:01

>  <TEST VALUE>
14

$$$$
>  <RESIDUE SEQUENCE>
AIQGNVTSI [Rv3875_17-25]

>  <VALUE KIND>
Bind A*30:01

>  <TEST VALUE>
0

$$$$

====

# SYSTEM NAME: HLA-C*07:01 (Homo sapiens, UniProt P10321, K90N/S123Y)
# TEST PROTOCOL: off-rate assay (t1/2)
# Format: binding
# EXPERIMENTAL CONTEXT: time points 0-8 h
VALUE KIND: O-rate C*07:01 (t1/2) (min)

>  <SUBSTANCE>
YNYPAMLGH [Rv0288_6–14]

>  <TEST VALUE>
18

$$$$
>  <SUBSTANCE>
FVRSSNLKF

>  <TEST VALUE>
84

$$$$
>  <SUBSTANCE>
NTPAFEWYY

>  <TEST VALUE>
54

$$$$
>  <SUBSTANCE>
SSAMILAAY

>  <TEST VALUE>
96

$$$$
>  <SUBSTANCE>
ANNTRLWVY

>  <TEST VALUE>
42

$$$$
>  <SUBSTANCE>
MAGSSAMIL

>  <TEST VALUE>
30

$$$$
>  <SUBSTANCE>
RAYHAMSST [Rv0288_67–75wt]

>  <TEST VALUE>
12

$$$$
>  <SUBSTANCE>
AMEDLVRAY [Rv0288_61–69]

>  <TEST VALUE>
6

$$$$
>  <SUBSTANCE>
IMYNYPAML [Rv0288_4–12]

>  <TEST VALUE>
12

$$$$
>  <SUBSTANCE>
MGRDIKVQF

>  <TEST VALUE>
12

$$$$
>  <SUBSTANCE>
LAAYHPQQF

>  <TEST VALUE>
24

$$$$
>  <SUBSTANCE>
LSMAGSSAM

>  <TEST VALUE>
72

$$$$
>  <SUBSTANCE>
RAVKPT GSA

>  <TEST VALUE>
84

$$$$
>  <SUBSTANCE>
VRAYHAMSS [Rv0288_66–74]

>  <TEST VALUE>
12

$$$$
>  <SUBSTANCE>
NNSPAVYLL

>  <TEST VALUE>
36

$$$$
>  <SUBSTANCE>
YQSGLSIVM

>  <TEST VALUE>
18

$$$$
>  <SUBSTANCE>
LAAAWGGSG [Rv3875_39-47]

>  <TEST VALUE>
60

$$$$

====

# SYSTEM NAME: HLA-A*24:02 (Homo sapiens, UniProt P04439, D101N/D140Y/D185E/E176V/E190D/F33S/G103R/G107R/I119L/I121M/I306V/K335N/L105A/L180Q/L300P/N151K/N90K/Q86E/Q94H/R106L/R138H/R89G/T104I/T345S/V100E/W191G/Y123F)
# Assay type: binding
# EXPERIMENTAL CONTEXT: percent relative the binding of positive control peptide […]; duplicated experiments; positive binder >40%
Measured Bind A*24:02, listed per entry for reference.
VALUE KIND: Bind A*24:02 (%)

>  <SUBSTANCE>
QLNAMKGDL

>  <VALUE KIND>
Bind A*24:02

>  <TEST VALUE>
60

$$$$
>  <SUBSTANCE>
YAGSLSALL

>  <VALUE KIND>
Bind A*24:02

>  <TEST VALUE>
81

$$$$
>  <SUBSTANCE>
GMGPSLIGL

>  <VALUE KIND>
Bind A*24:02

>  <TEST VALUE>
53

$$$$
>  <SUBSTANCE>
TLQNLGAEI [Rv0288_24–32m1]

>  <VALUE KIND>
Bind A*24:02

>  <TEST VALUE>
4

$$$$
>  <SUBSTANCE>
SQGMGPSLI

>  <VALUE KIND>
Bind A*24:02

>  <TEST VALUE>
55

$$$$
>  <SUBSTANCE>
GGANIPAEF

>  <VALUE KIND>
Bind A*24:02

>  <TEST VALUE>
0

$$$$
>  <SUBSTANCE>
LSANRAVKP

>  <VALUE KIND>
Bind A*24:02

>  <TEST VALUE>
27

$$$$
>  <SUBSTANCE>
KPTGSAAIG

>  <VALUE KIND>
Bind A*24:02

>  <TEST VALUE>
0

$$$$
>  <SUBSTANCE>
WGAQLNAMK

>  <VALUE KIND>
Bind A*24:02

>  <TEST VALUE>
0

$$$$
>  <SUBSTANCE>
MAGSSAMIL

>  <VALUE KIND>
Bind A*24:02

>  <TEST VALUE>
26

$$$$
>  <SUBSTANCE>
AVFNFPPNG

>  <VALUE KIND>
Bind A*24:02

>  <TEST VALUE>
23

$$$$
>  <SUBSTANCE>
IPKLVANNT

>  <VALUE KIND>
Bind A*24:02

>  <TEST VALUE>
0

$$$$
>  <SUBSTANCE>
SPACGKAGC

>  <VALUE KIND>
Bind A*24:02

>  <TEST VALUE>
0

$$$$
>  <SUBSTANCE>
MGPSLIGLA

>  <VALUE KIND>
Bind A*24:02

>  <TEST VALUE>
0

$$$$
>  <SUBSTANCE>
IPAEFLENF

>  <VALUE KIND>
Bind A*24:02

>  <TEST VALUE>
48

$$$$
>  <SUBSTANCE>
KLVANNT RL

>  <VALUE KIND>
Bind A*24:02

>  <TEST VALUE>
73

$$$$
>  <SUBSTANCE>
QQFIYAGSL

>  <VALUE KIND>
Bind A*24:02

>  <TEST VALUE>
0

$$$$
>  <SUBSTANCE>
GT HSWEYWG

>  <VALUE KIND>
Bind A*24:02

>  <TEST VALUE>
2

$$$$
>  <SUBSTANCE>
IVMPVGGQS

>  <VALUE KIND>
Bind A*24:02

>  <TEST VALUE>
0

$$$$
>  <SUBSTANCE>
VYLLDGLRA

>  <VALUE KIND>
Bind A*24:02

>  <TEST VALUE>
87

$$$$
>  <SUBSTANCE>
GGNNSPAVY

>  <VALUE KIND>
Bind A*24:02

>  <TEST VALUE>
0

$$$$
>  <SUBSTANCE>
AVYLLDGLR

>  <VALUE KIND>
Bind A*24:02

>  <TEST VALUE>
8

$$$$
>  <SUBSTANCE>
LKFQDAYNA

>  <VALUE KIND>
Bind A*24:02

>  <TEST VALUE>
0

$$$$
>  <SUBSTANCE>
LAMGDAGGY

>  <VALUE KIND>
Bind A*24:02

>  <TEST VALUE>
0

$$$$
>  <SUBSTANCE>
NAMKGDLQS

>  <VALUE KIND>
Bind A*24:02

>  <TEST VALUE>
45

$$$$
>  <SUBSTANCE>
FLTSELPQW

>  <VALUE KIND>
Bind A*24:02

>  <TEST VALUE>
117

$$$$
>  <SUBSTANCE>
PTQQIPKLV

>  <VALUE KIND>
Bind A*24:02

>  <TEST VALUE>
11

$$$$
>  <SUBSTANCE>
KFQDAYNAA

>  <VALUE KIND>
Bind A*24:02

>  <TEST VALUE>
0

$$$$
>  <SUBSTANCE>
ETFLTSELP

>  <VALUE KIND>
Bind A*24:02

>  <TEST VALUE>
2

$$$$
>  <SUBSTANCE>
SPAVYLLDG

>  <VALUE KIND>
Bind A*24:02

>  <TEST VALUE>
49

$$$$
>  <SUBSTANCE>
VMPVGGQSS

>  <VALUE KIND>
Bind A*24:02

>  <TEST VALUE>
0

$$$$
>  <SUBSTANCE>
FIYAGSLSA

>  <VALUE KIND>
Bind A*24:02

>  <TEST VALUE>
11

$$$$
>  <SUBSTANCE>
LSIVMPVGG

>  <VALUE KIND>
Bind A*24:02

>  <TEST VALUE>
0

$$$$
>  <SUBSTANCE>
IYAGSLSAL

>  <VALUE KIND>
Bind A*24:02

>  <TEST VALUE>
107

$$$$
>  <SUBSTANCE>
AMGDAGGYK

>  <VALUE KIND>
Bind A*24:02

>  <TEST VALUE>
0

$$$$
>  <SUBSTANCE>
RLWVYCGNG

>  <VALUE KIND>
Bind A*24:02

>  <TEST VALUE>
0

$$$$
>  <SUBSTANCE>
YLLDGLRAQ

>  <VALUE KIND>
Bind A*24:02

>  <TEST VALUE>
0

$$$$
>  <SUBSTANCE>
DPSQGMGPS

>  <VALUE KIND>
Bind A*24:02

>  <TEST VALUE>
58

$$$$
>  <SUBSTANCE>
DLVRAYHSM [Rv0288_64–72m1]

>  <VALUE KIND>
Bind A*24:02

>  <TEST VALUE>
0

$$$$
>  <SUBSTANCE>
PNGTHSWEY

>  <VALUE KIND>
Bind A*24:02

>  <TEST VALUE>
0

$$$$
>  <SUBSTANCE>
CGKAGCQT Y

>  <VALUE KIND>
Bind A*24:02

>  <TEST VALUE>
32

$$$$
